experimental_target: Metabotropic glutamate receptor 8 (Rattus norvegicus) (UniProt P70579)
Sequence (P70579 whole entry, looked up): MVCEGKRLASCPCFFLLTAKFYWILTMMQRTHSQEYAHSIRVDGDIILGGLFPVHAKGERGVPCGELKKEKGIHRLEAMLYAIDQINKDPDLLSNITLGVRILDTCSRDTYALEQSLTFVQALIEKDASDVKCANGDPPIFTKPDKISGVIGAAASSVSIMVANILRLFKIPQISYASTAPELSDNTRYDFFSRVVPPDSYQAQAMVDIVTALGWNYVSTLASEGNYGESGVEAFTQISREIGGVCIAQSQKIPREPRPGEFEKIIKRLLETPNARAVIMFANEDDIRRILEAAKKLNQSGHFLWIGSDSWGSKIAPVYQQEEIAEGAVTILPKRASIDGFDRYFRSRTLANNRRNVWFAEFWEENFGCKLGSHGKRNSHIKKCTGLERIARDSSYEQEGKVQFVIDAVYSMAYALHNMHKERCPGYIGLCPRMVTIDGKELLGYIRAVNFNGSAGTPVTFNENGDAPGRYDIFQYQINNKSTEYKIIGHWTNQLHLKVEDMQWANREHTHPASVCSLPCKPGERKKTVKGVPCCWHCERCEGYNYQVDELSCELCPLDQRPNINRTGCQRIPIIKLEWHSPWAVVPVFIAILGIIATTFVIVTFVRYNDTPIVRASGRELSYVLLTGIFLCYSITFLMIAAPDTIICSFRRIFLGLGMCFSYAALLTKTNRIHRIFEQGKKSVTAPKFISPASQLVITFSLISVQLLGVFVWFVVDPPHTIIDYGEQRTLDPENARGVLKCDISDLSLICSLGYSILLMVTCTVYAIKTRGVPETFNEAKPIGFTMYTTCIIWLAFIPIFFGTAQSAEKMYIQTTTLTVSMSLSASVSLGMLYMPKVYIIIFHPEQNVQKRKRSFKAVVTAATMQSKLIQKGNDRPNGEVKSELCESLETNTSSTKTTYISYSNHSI
assay_details: mGluR8 Gi/Go-coupled signaling modulation – cell-based, rat, thallium flux, HTS, primary screen (AID 488969)
condition: HEK293 rat mGluR8, GIRK thallium flux, FluoZin2; at 10 µM; stronger effect = higher value; submaximal glutamate (EC20) added with thallium
The full ranking holds about 110,000 compounds; the median of “z-score” is about -0.1, and the highest 2% start at about 2. For the sample, the highest values were picked, then their nearest neighbours and some compounds at random.
recorded_endpoint: z-score
Write no unit; give the number alone.

Use the examples below as a reference point.
INSERT INTO measurements (compound, reported) VALUES
  ('O=C(Nc1ccc2c(c1)OCO2)N1CCN(C/C=C/c2ccccc2)CC1', -0.663),
  ('CCOC(=O)c1ccc(CNCc2ccccc2)cc1', -0.07),
  ('CCNC(=S)Nc1nc2c(cc1C(=O)OCC)CCCC2', 8.73),
  ('CCOC(=O)c1cccc(NC(=O)/C(=C\c2ccccc2)NC(=O)c2ccccc2Cl)c1', -0.208),
  ('CC1=C(C(=O)Nc2ccc(F)cc2)C(c2ccc(C)o2)C2=C(CC(C)(C)CC2=O)N1 (stereo unspecified)', 0.288);

Please look at the following compound next.
Lookup result for CC1CCCCN1C(=O)NC12CC3CC(CC(C3)C1)C2 (stereo unspecified) ; measured z-score: -0.518

---

experimental_target: Metabotropic glutamate receptor 8 (Rattus norvegicus) (UniProt P70579)
assay_details: mGluR8 Gi/Go-coupled signaling modulation – cell-based, rat, thallium flux, HTS, primary screen (AID 488969)
condition: HEK293 rat mGluR8, GIRK thallium flux, FluoZin2; at 10 µM; stronger effect = higher value; submaximal glutamate (EC20) added with thallium
The full ranking holds about 110,000 compounds; the median of “z-score” is about -0.1, and the highest 2% start at about 2. This is one part of a sample in which the highest values are shown more often than they occur.
Class key for z-score values: interval 1 (below -0.2), interval 2 (-0.2 to below 0.2), interval 3 (0.2 or more)

Some solved cases for reference:
INSERT INTO assay_data (molecule, assigned_label) VALUES
  ('COc1ccc(C(=O)n2nc(C)cc2C)cc1OC', 'interval 1'),
  ('CC(C)Oc1cccc(C(=O)NC(=S)Nc2ccc3c4c(cccc24)CC3)c1', 'interval 3'),
  ('O=C(OC1CCN(c2ncc(C(F)(F)F)cc2Cl)CC1)c1ccc(Cl)cc1', 'interval 2'),
  ('Cc1ccccc1OCC(=O)NC(=S)Nc1ccc2c3c(cccc13)CC2', 'interval 3'),
  ('O=C(Cn1c(=O)n(Cc2ccccc2)c(=O)c2ccccc21)NCc1ccco1', 'interval 1');

[in] Band for "O=C(COc1ccccc1)NC(=S)Nc1ccc2c3c(cccc13)CC2" ?
[out] interval 3

[in] Band for CC1=C(C(=O)Nc2ccccc2)C(c2ccco2)C(C#N)=C(SCC(=O)Nc2cccc(C)c2C)N1 (configuration not stated) ?
[out] interval 3

[in] Band for COc1cc(C2N(c3ccc(F)cc3)C(=O)C3CCCN32)cc(OC)c1OC (configuration not stated) ?
[out] interval 3

[in] Band for CCN(CC)C(=O)NC(c1ccc(C)c(F)c1)C(Cl)(Cl)Cl (configuration not stated) ?
[out] interval 1

[in] Band for "O=C(c1cnccn1)N(c1ccccc1)C1(C(=O)NC2CCCC2)CCCCC1" ?
[out] interval 2

---

z-score listing for selected molecules.
experimental_target: Metabotropic glutamate receptor 8 (Rattus norvegicus) (UniProt P70579)
assay_details: mGluR8 Gi/Go-coupled signaling modulation – cell-based, rat, thallium flux, HTS, primary screen (AID 488969)
condition: HEK293 rat mGluR8, GIRK thallium flux, FluoZin2; at 10 µM; stronger effect = higher value; submaximal glutamate (EC20) added with thallium
The full ranking holds about 110,000 compounds; the median of “z-score” is about -0.1, and the highest 2% start at about 2. The list comes from a sample in which the highest values are over-represented; it also holds close analogues and randomly drawn compounds.
Write no unit; give the number alone.

Use the examples below as a reference point.
INSERT INTO results (molecule, recorded_endpoint, reported) VALUES
  ('O=C(C(Cc1ccccc1)N1C(=O)C2C3C=CC(C3)C2C1=O)N1CCCCC1 (stereo unspecified)', 'z-score', -0.174),
  ('Cc1ccc(S(=O)(=O)CC(C)N2CCN(C3CCCCC3)CC2)cc1 (stereo unspecified)', 'z-score', 1.44),
  ('Cc1ccc2cc(CN(Cc3cccs3)Cc3nnnn3CC3CCCO3)c(=O)[nH]c2c1 (stereo unspecified)', 'z-score', -0.0837),
  ('O=C(NCC1(c2ccccc2)CCCC1)c1ccc(Br)o1', 'z-score', -0.309),
  ('O=C1CC(C(=O)Nc2ccccc2)C2(CCCCC2)O1 (stereo unspecified)', 'z-score', -0.333);

Simply: "O=C(NC(=S)NCCN1CCOCC1)c1ccccc1Cl" , Metabotropic glutamate receptor 8 (Rattus norvegicus) (UniProt P70579), z-score = -0.177

Simply: "CCOC(=O)c1cnn2c1[nH]c(=O)c1ccccc12" , Metabotropic glutamate receptor 8 (Rattus norvegicus) (UniProt P70579), z-score = 1.54

Simply: CCCC1Cc2nc(N3CCCCC3)c(C#N)cc2CO1 (stereo unspecified) , Metabotropic glutamate receptor 8 (Rattus norvegicus) (UniProt P70579), z-score = 0.443

Simply: "COc1ccc(NC(=O)CSc2ccc(-c3ccccn3)nn2)cc1OC" , Metabotropic glutamate receptor 8 (Rattus norvegicus) (UniProt P70579), z-score = -0.397

Simply: "O=C(c1nc2ccccc2s1)N1CCSCC1" , Metabotropic glutamate receptor 8 (Rattus norvegicus) (UniProt P70579), z-score = 0.0723

---

z-score listing for selected molecules.
experimental_target: Metabotropic glutamate receptor 8 (Rattus norvegicus) (UniProt P70579)
assay_details: mGluR8 Gi/Go-coupled signaling modulation – cell-based, rat, thallium flux, HTS, primary screen (AID 488969)
condition: HEK293 rat mGluR8, GIRK thallium flux, FluoZin2; at 10 µM; stronger effect = higher value; submaximal glutamate (EC20) added with thallium
Over roughly 110,000 compounds, “z-score” has its median near -0.1; the highest 2% begin near 2. Shown is part of a subset that was picked to be rich in the highest values. Calls of active or inactive are those of the source.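 How the source made its calls: active means z-score in the third read window above 3 or below -3; inactive means the rest.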

INSERT INTO results (query_smiles, reported) VALUES
  ('CCc1ccc(/C=c2\s/c(=C\C(=O)C(C)(C)C)[nH]c2=O)cc1', '7.24 (active)'),
  ('COc1ccc(/C=c2\s/c(=C/C(=O)c3ccc(C)cc3)[nH]c2=O)cc1OC', 0.46),
  ('CC(C)(CNC(=O)/C=C/c1ccc(F)cc1)CNC(=O)/C=C/c1ccc(F)cc1', -0.186),
  ('CSc1ccc(/C=c2\s/c(=C\C(=O)C(C)(C)C)n(CC(=O)NCCC3=CCCCC3)c2=O)cc1', -0.0802),
  ('Cc1ccc2c(c1)CCCN2C(=O)c1ccncc1', 0.255);

Lookup result for "CC(C)(C)C(=O)/C=c1\[nH]c(=O)/c(=C\c2ccc(F)cc2)s1" ; measured z-score: 5.06 (active)

Lookup result for "CCc1ccc(/C=C(\Cl)c2nc3cc(Cl)ccc3c(=O)[nH]2)cc1" ; measured z-score: 0.511

Lookup result for "Cc1cccc(/C=C2\CS/C(=C\c3cccc(C)c3)C2=O)c1" ; measured z-score: -0.0758

Lookup result for "O=C(CN(C(=O)c1cccc([N+](=O)[O-])c1)C1CCCCC1)Nc1ccc(Cl)c([N+](=O)[O-])c1" ; measured z-score: -0.137

Lookup result for "CC(C)(C)NC(=O)COC(=O)/C=C/c1ccc(F)cc1" ; measured z-score: -0.0768

---

experimental_target: Metabotropic glutamate receptor 8 (Rattus norvegicus) (UniProt P70579)
assay_details: mGluR8 Gi/Go-coupled signaling modulation – cell-based, rat, thallium flux, HTS, primary screen (AID 488969)
condition: HEK293 rat mGluR8, GIRK (G protein-gated inwardly rectifying potassium channel) thallium flux, FluoZin2; at 10 µM; stronger effect = higher value; submaximal glutamate (EC20) added with thallium
Whole data set: some 110,000 compounds, median “z-score” near -0.1, cut for the highest 2% near 2. Only a selection was taken, and the highest values are over-represented in it overall.
recorded_endpoint: z-score
Write no unit; give the number alone.

Use the examples below as a reference point.
INSERT INTO assay_data (compound, experimental_target, recorded_endpoint, reported) VALUES
  ('CCCC(=O)Nc1sc2c(c1C(=O)OC)C(C(=O)OC)CC2 (stereo unspecified)', 'Metabotropic glutamate receptor 8 (Rattus norvegicus) (UniProt P70579)', 'z-score', -0.0731),
  ('Cc1cccc(NC(=S)N/C(=N/S(=O)(=O)c2ccccc2)c2ccccc2)c1', 'Metabotropic glutamate receptor 8 (Rattus norvegicus) (UniProt P70579)', 'z-score', 1.97),
  ('Cc1nnc(SCc2ccc(F)cc2Cl)s1', 'Metabotropic glutamate receptor 8 (Rattus norvegicus) (UniProt P70579)', 'z-score', -0.295),
  ('O=c1[nH]c(-c2cccnc2)nc2ccccc12', 'Metabotropic glutamate receptor 8 (Rattus norvegicus) (UniProt P70579)', 'z-score', -0.073);

Lookup result for "O=C(CSc1n[nH]c(-c2ccco2)n1)Nc1sc2c(c1C(=O)Nc1ccccc1)CCCC2" ; measured z-score: -0.294

Lookup result for "O=C(CSc1ncccn1)N/N=C/c1cccc([N+](=O)[O-])c1" ; measured z-score: 1.35

Lookup result for "O=C(Cc1ccccc1)N/N=C/c1cccn1-c1ccc([N+](=O)[O-])cc1" ; measured z-score: 3.83

Lookup result for "Cc1cccc(NC(=S)N/N=C/c2c[nH]c3ccccc23)c1" ; measured z-score: -0.0914

Lookup result for "C/C(=N\NC(=S)Nc1cccc(C)c1)c1ccccc1" ; measured z-score: 5.36

Lookup result for "O=C(Nc1ccc(N2CCCC2)c(S(=O)(=O)Nc2cccc(C(F)(F)F)c2)c1)c1cccs1" ; measured z-score: -0.233

Lookup result for CCC(C)c1ccccc1NC(=O)COC(=O)c1ccc2c(c1)S(=O)(=O)c1ccccc1C2=O (stereo unspecified) ; measured z-score: 2.17
